List of TGI values.
# Tested on: COLO 205 colon
# protocol_description: NCI tumour cell line growth inhibition, 48 h
Respond numerically; units are µM and should not be typed.

Below, 5 compounds whose answers are already recorded.
INSERT INTO assay_data (smiles, property_measured, reported_measurement) VALUES
  ('COc1cc2c3c(n(CCCN(CCO)CCO)c(=O)c2cc1OC)-c1cc2c(cc1C3=O)OCO2', 'TGI', 12.7),
  ('Cn1c(=S)c2[nH]c(SCCCc3ccccc3)nc2n(C)c1=O', 'TGI', 25.4),
  ('CCOC(=O)c1c(OCC)[nH]c(=O)c(C(c2cccs2)c2c(O)c(C(=O)OCC)c(OCC)[nH]c2=O)c1O', 'TGI', 40.7),
  ('NCCCn1c2c(c3ccccc3c1=O)C(=O)c1ccccc1-2', 'TGI', 2.88),
  ('Cc1ccc(CSC(N)=Nc2ccccc2)cc1C', 'TGI', 41.5);

Okay, next one:
Query block: Requested read-out: TGI. Entry: `Cc1ccc2[c](c1)[Sn]([c]1ccccc1)([c]1ccccc1)[c]1cc(C)ccc1N2C`
Result block: 52.2
